protocolText: Single-dose pharmacokinetics of concomitant cannabidiol product and kratom product
Format: in vivo, male Sprague-Dawley rats
assayConditions: male, Sprague-Dawley, rat; cannabidiol in plasma; single concomitant oral dose of cannabidiol product (50 mg/kg) and kratom product (9.4 mg/kg mitragynine); n = 5; mean ± SEM
Procedure: Male Sprague-Dawley rats (weight 250 ± 25 g) were obtained from Envigo (Indianapolis, IN, USA) with indwelling jugular vein catheters. Animals were acclimated for ≥72 h in a temperature- and humidity-controlled vivarium on a 12 h light/dark cycle. […] Samples were analyzed using previously validated ultraperformance liquid chromatography-tandem mass spectrometry (UPLC-MS/MS) methods for the quantification of cannabinoids and alkaloids in rat plasma. […]
observable: Tmax (h)

> print(dat)
                             chemicalstring  observable  assayresult
1  C=C(C)[C@@H]1CCC(C)=C[C@H]1c1c(O)cc(CCCCC)cc1O        Tmax          6.3

* * *

protocolText: Multiple-dose (steady-state) pharmacokinetics of concomitant cannabidiol and kratom product
Type: in vivo, male Sprague-Dawley rats
assayConditions: male, Sprague-Dawley, rat, plasma, oral, 5-day q12 h oral 25 mg/kg cannabidiol and kratom product (Eq. 4.7 mg/kg mitragynine); minimum plasma concentration at steady-state; mean ± SEM; read-out: Cmin,ss
observable: concentration at 5 days

> print(dat)
                             chemicalstring  assayresult
1  CC[C@@H]1CN2CCc3c([nH]c4cccc(OC)c34)[C@@H]2C[C@@H]1/C(=C\OC)C(=O)OC   91.1 ng/mL
2  C=C(C)[C@@H]1CCC(C)=C[C@H]1c1c(O)cc(CCCCC)cc1O   80.9 ng/mL

* * *

protocolText: Multiple-dose (steady-state) pharmacokinetics of concomitant cannabidiol and kratom product
Assay type: in vivo, male Sprague-Dawley rats
assayConditions: male, Sprague-Dawley, rat, plasma, oral, 5-day q12 h oral 25 mg/kg cannabidiol and kratom product (Eq. 4.7 mg/kg mitragynine); average plasma concentration at steady-state; mean ± SEM; read-out: Cavg,ss
observable: concentration at 5 days (ng/mL)

> print(dat)
                                   compound               observable  assayresult
1  C=C(C)[C@@H]1CCC(C)=C[C@H]1c1c(O)cc(CCCCC)cc1O [Cannabidiol]  concentration at 5 days          204
2  CC[C@@H]1CN2CCc3c([nH]c4cccc(OC)c34)[C@@H]2C[C@@H]1/C(=C\OC)C(=O)OC [Mitragynine, mitragynine]  concentration at 5 days          151

* * *

protocolText: Single-dose pharmacokinetics of concomitant cannabidiol product and kratom product
Format: in vivo, male Sprague-Dawley rats
assayConditions: male, Sprague-Dawley, rat; mitragynine in plasma; single concomitant oral dose of cannabidiol product (50 mg/kg) and kratom product (9.4 mg/kg mitragynine); n = 5; mean ± SEM; read-out: Cmax
observable: Cmax (ng/mL)

> print(dat)
                             chemicalstring  observable  assayresult
1  CC[C@@H]1CN2CCc3c([nH]c4cccc(OC)c34)[C@@H]2C[C@@H]1/C(=C\OC)C(=O)OC        Cmax          253

* * *

protocolText: Single-dose pharmacokinetics of concomitant cannabidiol product and kratom product
Assay type: in vivo, male Sprague-Dawley rats
assayConditions: male, Sprague-Dawley, rat, po; minor kratom alkaloid/metabolite in plasma; single concomitant dose of cannabidiol and kratom product; n = 5; mean ± SEM; read-out: AUC0–24
Listed here are compounds together with their documented AUC(0-t).
observable: AUC(0-t) (ng·h/mL)

> print(dat)
                             chemicalstring  assayresult
1  CC[C@@H]1CN2CCc3c([nH]c4cccc(OC)c34)[C@H]2C[C@@H]1/C(=C\OC)C(=O)OC          990
2  C=C[C@H]1CN2CCc3c([nH]c4cccc(OC)c34)[C@@H]2C[C@@H]1/C(=C\OC)C(=O)OC          290

The measurements presented in this section are drawn from paper PMC10974275.
